# reported AC50; entries follow
# Tgt: UniProt:P21731
# Sequence (P21731 whole entry): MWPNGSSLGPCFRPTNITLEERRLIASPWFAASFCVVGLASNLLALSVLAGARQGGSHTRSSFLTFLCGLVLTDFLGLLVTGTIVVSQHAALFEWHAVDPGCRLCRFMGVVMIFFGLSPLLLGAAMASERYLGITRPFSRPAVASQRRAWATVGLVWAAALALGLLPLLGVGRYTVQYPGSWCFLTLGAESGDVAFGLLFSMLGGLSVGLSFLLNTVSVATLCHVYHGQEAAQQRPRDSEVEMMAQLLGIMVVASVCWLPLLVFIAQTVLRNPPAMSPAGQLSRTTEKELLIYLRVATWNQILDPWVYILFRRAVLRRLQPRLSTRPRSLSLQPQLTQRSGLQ
# Type: functional, cell-based

Consider the reported AC50 for these compounds:
> print(dat)
                                   compound  endpoint.name  reported.result
1  CC(C)(Oc1ccc(Cl)cc1)C(=O)NC(=O)NCN1CCOCC1 [PLAFIBRIDE]           AC50          > 30 µM
2  CCOC(=O)[C@H](CCc1ccccc1)N[C@@H](C)C(=O)N1Cc2ccccc2C[C@H]1C(=O)O           AC50          > 30 µM
3                CCCCCCCC/C=C\CCCCCCCC(=O)O           AC50          25.3 µM

Notebook: "COc1ccc(C(=O)c2ccccc2)c(O)c1" , AC50 read as > 10 µM

* * *

Record: AC50 reported on Mu-type opioid receptor (Homo sapiens, UniProt P35372).
Sequence (P35372 whole entry): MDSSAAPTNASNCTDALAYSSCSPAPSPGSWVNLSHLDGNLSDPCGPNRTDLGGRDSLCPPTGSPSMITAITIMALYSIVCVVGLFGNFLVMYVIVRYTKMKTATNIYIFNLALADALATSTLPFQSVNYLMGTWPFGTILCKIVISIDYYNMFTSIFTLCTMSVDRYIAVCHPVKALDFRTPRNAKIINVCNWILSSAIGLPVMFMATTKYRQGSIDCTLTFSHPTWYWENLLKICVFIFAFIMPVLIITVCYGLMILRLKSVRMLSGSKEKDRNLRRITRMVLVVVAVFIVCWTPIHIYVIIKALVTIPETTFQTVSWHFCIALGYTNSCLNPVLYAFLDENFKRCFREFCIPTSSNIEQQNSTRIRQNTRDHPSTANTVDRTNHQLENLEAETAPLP

Consider the reported AC50 for these molecules:
> print(dat)
                                   molecule  endpoint.name  reported.result
1  Cc1cnc(Nc2ccc(OCCN3CCCC3)cc2)nc1Nc1cccc(S(=O)(=O)NC(C)(C)C)c1 [FEDRATINIB]           AC50            17 µM
2           CC(=O)Oc1ccccc1C(=O)O [ASPIRIN]           AC50          > 30 µM

Field: next molecule
Record O=C(O[C@H]1C[N+]2(CCCOc3ccccc3)CCC1CC2)C(O)(c1cccs1)c1cccs1 [ACLIDINIUM BROMIDE] ; system Mu-type opioid receptor (Homo sapiens, UniProt P35372); AC50 = > 30 µM

* * *

Record: AC50 reported on UniProt:O43193.
Sequence (O43193 whole entry): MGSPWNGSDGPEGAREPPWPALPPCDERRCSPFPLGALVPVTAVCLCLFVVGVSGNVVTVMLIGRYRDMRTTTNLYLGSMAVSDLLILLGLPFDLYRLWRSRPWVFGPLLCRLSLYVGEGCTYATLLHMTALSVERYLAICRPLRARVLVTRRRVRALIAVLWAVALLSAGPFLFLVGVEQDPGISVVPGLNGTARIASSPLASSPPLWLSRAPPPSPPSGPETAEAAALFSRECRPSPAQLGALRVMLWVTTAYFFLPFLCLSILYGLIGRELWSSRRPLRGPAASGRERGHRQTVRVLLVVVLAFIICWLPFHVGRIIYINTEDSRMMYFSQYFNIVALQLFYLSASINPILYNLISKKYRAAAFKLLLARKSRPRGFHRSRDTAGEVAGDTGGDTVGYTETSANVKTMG

> print(dat)
                                   compound             tgt  reported.result
1          CCCCOC(=O)c1ccc(N)cc1 [BUTAMBEN]  UniProt:O43193          > 30 µM
2  CN(C)CCOC(=O)C(c1ccccc1)C1(O)CCCC1 (configuration not stated) [CYCLOPENTOLATE]  UniProt:O43193          > 10 µM
3  CCCCCCCC(=O)CC[C@@H]1[C@@H](C/C=C\CCCC(=O)O)[C@@H](O)C[C@H]1O [UNOPROSTONE]  UniProt:O43193          > 30 µM
4  OCCOCCN1CCN(C(c2ccccc2)c2ccc(Cl)cc2)CC1 (configuration not stated) [HYDROXYZINE]  UniProt:O43193          > 10 µM
5  O=C1CN=C(c2ccccc2Cl)c2cc([N+](=O)[O-])ccc2N1 [CLONAZEPAM]  UniProt:O43193          > 10 µM
6          NCC1(CC(=O)O)CCCCC1 [GABAPENTIN]  UniProt:O43193          > 30 µM

Notebook: CCOC(=O)O[C@]1(C(=O)COC(=O)CC)CC[C@H]2[C@@H]3CCC4=CC(=O)C=C[C@]4(C)[C@H]3[C@@H](O)C[C@@]21C [PREDNICARBATE] , AC50 read as > 10 µM

* * *

# reported AC50; entries follow
# Tgt: Gamma-aminobutyric acid receptor subunit alpha-1 (Rattus norvegicus, UniProt P62813)
# Sequence (P62813 whole entry): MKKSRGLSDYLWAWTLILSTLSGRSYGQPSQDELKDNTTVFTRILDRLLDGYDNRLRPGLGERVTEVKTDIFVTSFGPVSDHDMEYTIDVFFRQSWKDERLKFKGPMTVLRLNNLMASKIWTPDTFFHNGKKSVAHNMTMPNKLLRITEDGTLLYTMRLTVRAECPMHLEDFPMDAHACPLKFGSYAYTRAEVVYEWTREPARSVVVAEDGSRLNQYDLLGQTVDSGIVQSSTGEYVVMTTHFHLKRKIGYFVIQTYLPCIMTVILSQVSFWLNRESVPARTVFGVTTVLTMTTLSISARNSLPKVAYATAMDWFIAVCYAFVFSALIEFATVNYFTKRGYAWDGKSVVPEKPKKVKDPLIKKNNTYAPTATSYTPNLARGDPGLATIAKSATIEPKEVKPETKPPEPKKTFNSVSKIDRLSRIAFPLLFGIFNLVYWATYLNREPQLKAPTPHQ
# Assay type: functional

Consider the reported AC50 for these molecules:
> print(dat)
                                   molecule  reported.result
1  CC(=O)SCC(Cc1ccccc1)C(=O)NCC(=O)OCc1ccccc1 (stereo not drawn) [RACECADOTRIL]          > 30 µM
2           CC(C)(N)Cc1ccccc1 [PHENTERMINE]          > 10 µM

Field: next molecule
Notebook: C[C@@H](Cc1ccccc1)N(C)Cc1ccccc1 [BENZPHETAMINE] , AC50 read as > 10 µM
